# test.summary: Half life in Sprague-Dawley rat at 20 mg/kg, po measured up to 24 hrs by LC-MS/MS analysis
# Format: ADME, organism-based
# settings: in vivo
assay.metric: half-life (h)

{"mol.smiles": "O=C1NCCC12CCN(c1c(Cl)cncc1-c1cc3ccccc3o1)CC2", "assay.metric": "half-life", "obs.value": 2.24}
{"mol.smiles": "Cn1cc(-c2ccc(-c3cncc(Cl)c3N3CCC4(CCNC4=O)CC3)cc2)cn1", "assay.metric": "half-life", "obs.value": 4.24}

---

Measured pKi by item
# target.system: CDK8/Cyclin C (Homo sapiens, UniProt P49336)
# Sequence (P49336 whole entry): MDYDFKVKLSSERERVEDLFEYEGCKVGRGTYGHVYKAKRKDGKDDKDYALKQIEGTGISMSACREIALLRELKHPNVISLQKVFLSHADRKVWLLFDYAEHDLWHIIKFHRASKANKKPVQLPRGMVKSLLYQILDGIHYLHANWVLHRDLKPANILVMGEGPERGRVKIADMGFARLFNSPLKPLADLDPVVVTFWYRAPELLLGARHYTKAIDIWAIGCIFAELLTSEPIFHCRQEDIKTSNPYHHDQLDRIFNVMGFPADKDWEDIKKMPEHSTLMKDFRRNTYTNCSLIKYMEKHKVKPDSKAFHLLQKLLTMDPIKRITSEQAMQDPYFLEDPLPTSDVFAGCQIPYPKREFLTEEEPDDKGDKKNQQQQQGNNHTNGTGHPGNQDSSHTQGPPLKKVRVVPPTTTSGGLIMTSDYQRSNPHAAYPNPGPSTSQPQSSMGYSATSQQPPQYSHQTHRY
# Sequence (P24863 whole entry, further chain): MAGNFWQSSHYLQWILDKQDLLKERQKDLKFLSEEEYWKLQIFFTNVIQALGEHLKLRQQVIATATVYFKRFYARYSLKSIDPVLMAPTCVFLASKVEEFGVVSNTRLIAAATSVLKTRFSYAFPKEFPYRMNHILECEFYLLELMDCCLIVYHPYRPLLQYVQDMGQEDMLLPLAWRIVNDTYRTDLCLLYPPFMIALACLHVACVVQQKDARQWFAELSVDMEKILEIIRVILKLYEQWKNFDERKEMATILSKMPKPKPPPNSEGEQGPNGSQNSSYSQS
# test.summary: Inhibition of CDK8/cyclin C (unknown origin) using RBER-IRStide as substrate incubated for 60 mins in presence of [gamma33P]ATP by scintillation counting method
pKi: −log10 of the molar value.
assay.metric: pKi

{"mol.smiles": "O=C1NCCC12CCN(c1c(Cl)cncc1-c1cccc3ccccc13)CC2", "assay.metric": "pKi", "obs.value": 7.80}
{"mol.smiles": "O=C1NCCC12CCN(c1c(Cl)cncc1-c1cn(S(=O)(=O)c3ccccc3)c3ccccc13)CC2", "assay.metric": "pKi", "obs.value": 6.19}
{"mol.smiles": "O=C1NCCC12CCN(c1c(Cl)cncc1-c1ccnc3ccccc13)CC2", "assay.metric": "pKi", "obs.value": 6.86}
{"mol.smiles": "O=C1NCCC12CCN(c1c(Cl)cncc1-c1cnn(-c3ccccc3)c1)CC2", "assay.metric": "pKi", "obs.value": 7.38}
{"mol.smiles": "O=C1NCCC12CCN(c1c(Cl)cncc1-c1cccc3cccnc13)CC2", "assay.metric": "pKi", "obs.value": 6.94}
{"mol.smiles": "O=C1NCCC12CCN(c1c(Cl)cncc1-c1cccc3cnccc13)CC2", "assay.metric": "pKi", "obs.value": 7.28}

---

# target.system: CDK8/Cyclin C (Homo sapiens, UniProt P49336)
# test.summary: Inhibition of CDK8/cyclin C (unknown origin) using RBER-IRStide as substrate incubated for 60 mins in presence of [gamma33P]ATP by scintillation counting method
assay.metric: log10(Ki) (log10 of the value in nM)

{"mol.smiles": "Cn1c(-c2cncc(Cl)c2N2CCC3(CCNC3=O)CC2)cc2ccccc21", "assay.metric": "log10(Ki)", "obs.value": 1.90}
{"mol.smiles": "O=C1NCCC12CCN(c1c(Cl)cncc1-c1cc3ccccc3s1)CC2", "assay.metric": "log10(Ki)", "obs.value": 1.15}
{"mol.smiles": "O=C1NCCC12CCN(c1c(Cl)cncc1-c1c[nH]c3ccccc13)CC2", "assay.metric": "log10(Ki)", "obs.value": 1.75}
{"mol.smiles": "O=C1NCCC12CCN(c1c(Cl)cncc1-c1cccc3ncccc13)CC2", "assay.metric": "log10(Ki)", "obs.value": 1.34}
{"mol.smiles": "CC(C)(C)OC(=O)N1CCC(n2cc(-c3cncc(Cl)c3N3CCC4(CCNC4=O)CC3)cn2)CC1", "assay.metric": "log10(Ki)", "obs.value": 2.85}
{"mol.smiles": "Cn1cc2c(-c3cncc(Cl)c3N3CCC4(CCNC4=O)CC3)cccc2n1", "assay.metric": "log10(Ki)", "obs.value": 1.72}
{"mol.smiles": "O=C1NCCC12CCN(c1c(Cl)cncc1-c1cn(Cc3ccccc3)c3ncccc13)CC2", "assay.metric": "log10(Ki)", "obs.value": 1.76}
{"mol.smiles": "O=C1NCCC12CCN(c1c(Cl)cncc1-c1csc3ccccc13)CC2", "assay.metric": "log10(Ki)", "obs.value": 1.32}
{"mol.smiles": "O=C1NCCC12CCN(c1c(Cl)cncc1-c1cccc3[nH]ccc13)CC2", "assay.metric": "log10(Ki)", "obs.value": 1.28}
{"mol.smiles": "Cn1cc(-c2ccc(-c3cncc(Cl)c3-n3ccc(C(N)=O)c3)cc2)cn1", "assay.metric": "log10(Ki)", "obs.value": 3.04}
{"mol.smiles": "O=C1NCCC12CCN(c1c(Cl)cncc1-c1cc3ccccc3o1)CC2", "assay.metric": "log10(Ki)", "obs.value": 1.15}
{"mol.smiles": "CNC(=O)c1ccn(-c2c(Cl)cncc2-c2ccc(-c3cnn(C)c3)cc2)c1", "assay.metric": "log10(Ki)", "obs.value": 3.31}
{"mol.smiles": "Cn1ncc2c(-c3cncc(Cl)c3N3CCC4(CCNC4=O)CC3)cccc21", "assay.metric": "log10(Ki)", "obs.value": 2.66}
{"mol.smiles": "O=C1NCCC12CCN(c1c(Cl)cncc1-c1coc3ccccc13)CC2", "assay.metric": "log10(Ki)", "obs.value": 1.68}
